Test System: EGFR wt (Homo sapiens (Human), UniProt P00533)
Sequence (P00533 25-1210): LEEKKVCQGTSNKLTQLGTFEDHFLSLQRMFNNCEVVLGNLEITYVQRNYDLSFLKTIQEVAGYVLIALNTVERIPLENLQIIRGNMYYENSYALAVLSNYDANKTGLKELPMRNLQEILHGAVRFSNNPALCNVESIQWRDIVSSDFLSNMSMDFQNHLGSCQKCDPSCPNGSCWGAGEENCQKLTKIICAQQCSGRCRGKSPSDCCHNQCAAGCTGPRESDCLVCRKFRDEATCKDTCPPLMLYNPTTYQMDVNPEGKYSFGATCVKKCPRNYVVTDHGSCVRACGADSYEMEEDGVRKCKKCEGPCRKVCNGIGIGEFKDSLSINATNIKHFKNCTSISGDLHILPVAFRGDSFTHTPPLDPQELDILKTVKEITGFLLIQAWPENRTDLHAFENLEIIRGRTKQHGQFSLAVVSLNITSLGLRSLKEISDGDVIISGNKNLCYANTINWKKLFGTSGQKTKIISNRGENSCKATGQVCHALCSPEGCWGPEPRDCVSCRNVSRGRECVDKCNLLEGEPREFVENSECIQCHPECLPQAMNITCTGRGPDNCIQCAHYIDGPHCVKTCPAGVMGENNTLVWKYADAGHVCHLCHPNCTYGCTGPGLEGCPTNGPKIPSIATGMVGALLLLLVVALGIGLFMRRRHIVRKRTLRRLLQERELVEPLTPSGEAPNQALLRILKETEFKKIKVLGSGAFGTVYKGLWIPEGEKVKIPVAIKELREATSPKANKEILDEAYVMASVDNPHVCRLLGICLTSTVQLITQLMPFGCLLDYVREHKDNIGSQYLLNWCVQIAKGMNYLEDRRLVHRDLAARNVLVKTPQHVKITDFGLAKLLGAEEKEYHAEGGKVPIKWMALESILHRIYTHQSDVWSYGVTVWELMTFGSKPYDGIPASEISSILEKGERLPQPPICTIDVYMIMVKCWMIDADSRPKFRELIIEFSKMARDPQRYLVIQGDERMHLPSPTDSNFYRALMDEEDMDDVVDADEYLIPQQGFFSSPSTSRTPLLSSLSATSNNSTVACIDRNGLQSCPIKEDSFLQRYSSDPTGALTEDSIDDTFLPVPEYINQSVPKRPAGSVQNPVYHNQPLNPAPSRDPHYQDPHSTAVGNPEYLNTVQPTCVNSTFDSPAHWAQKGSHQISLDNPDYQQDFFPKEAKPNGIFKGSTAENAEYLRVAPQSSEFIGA
Assay Protocol: Biochemical EGFR inhibition assay (TR-FRET, poly-GT substrate), EGFR wt
Setup Conditions: read-out: wt (5 μM ATP) IC50; 5 μM ATP
pIC50: −log10 of the molar value.
Kindly return Y if reported pIC50 is no lower than 6; return N if it is lower.

Record excerpt, results attached:
Cc1cc(C(=O)/N=c2\[nH]c3cc(CN4CCOCC4)ccc3n2[C@H]2CCC[C@H](O)C2)cc(-c2cnn(C)c2)n1    N
Cn1cc(-c2cc(C(=O)/N=c3\[nH]c4ccccc4n3[C@H]3CC[C@@H](O)CC3)ccn2)cn1    Y
O=C(/N=c1\[nH]c2ccccc2n1[C@H]1CC[C@@H](O)CC1)c1ccnc(-c2cccn3ncnc23)c1    N
O=C(/N=c1\[nH]c2ccccc2n1[C@H]1CC[C@@H](O)CC1)c1ccnc(-c2coc3cccnc23)c1    N
O=C(/N=c1\[nH]c2ccccc2n1[C@H]1CC[C@@H](O)CC1)c1ccnc(-c2ccccc2)c1    Y

Okay, now this compound:
Would you say `O=C(/N=c1\[nH]c2ccccc2n1[C@H]1CC[C@@H](O)CC1)c1ccnc(-c2ccccc2F)c1` shows pIC50 at minimum 6? Y
